As an illustration, consider measured log10 IC50 for compounds on Muscarinic acetylcholine receptor.
// do not treat as linear: log10 of IC50, unit nM

Prompt line: Consider the compound shown here: "Cc1ccc(C[N+](C)(C)C)o1" What is its recorded log10 IC50?
Response line: 0.75

---

Recorded IC50 by entry
# Assay Target: Muscarinic acetylcholine receptor
Please give a number only; it is taken to be in nM.

These solved cases illustrate the format of a correct answer.
                                   compound  readout_label  units_text  measured
0           CC[C@H]1C(=O)NC[C@@H]1Cc1cncn1C           IC50          nM       800
1  CC[C@H]1C(O)SC[C@@H]1Cc1cncn1C (some centres not stated)           IC50          nM       330
2      O=C1CCCN1CC#CCN1CCCC1 [OXOTREMORINE]           IC50          nM       2.8
3  CC1OCC(CN(C)C)O1 (configuration not stated)           IC50          nM       6.4
4               CCN1C(=O)OC[C@@H]1Cc1cncn1C           IC50          nM       100

Prompt line: What value of IC50 on Muscarinic acetylcholine receptor does "CC[C@@H]1C(=O)N(C)C[C@@H]1Cc1cncn1C" have?
Response line: 4600

Prompt line: What value of IC50 on Muscarinic acetylcholine receptor does "CC[C@@H]1COC[C@@H]1Cc1cncn1C" have?
Response line: 445
